Where do these numbers come from? They come from patent US5834461A.

biological target: rat kidney medullary V2 receptors (Rattus norvegicus, UniProt Q00788); construct: Medullary tissues from rat kidneys are dissected out; from tissue; host or cells: rat kidney medulla membranes; test: Binding Assay to Rat Kidney Medullary V2 Receptors; conditions: 10 μM; rat kidney; read-out: V2, % at concentration in brackets
Sequence (Q00788 whole entry): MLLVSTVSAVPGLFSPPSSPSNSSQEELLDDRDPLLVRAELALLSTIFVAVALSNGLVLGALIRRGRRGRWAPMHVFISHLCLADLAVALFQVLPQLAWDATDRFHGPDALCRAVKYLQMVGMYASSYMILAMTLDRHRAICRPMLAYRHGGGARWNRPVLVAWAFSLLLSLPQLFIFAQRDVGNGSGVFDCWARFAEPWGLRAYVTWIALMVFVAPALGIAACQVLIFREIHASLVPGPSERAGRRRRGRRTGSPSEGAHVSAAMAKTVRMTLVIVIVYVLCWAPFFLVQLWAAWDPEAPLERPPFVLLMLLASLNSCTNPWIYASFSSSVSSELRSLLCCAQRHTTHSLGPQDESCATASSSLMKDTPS
Endpoint label: inhibition at 10 µM (%)
Give the value in % but do not write % after it.

Example entries and their recorded answers appear below.
Qu. May I ask what inhibition at 10 µM has been recorded for O=C(Nc1ccc(C(=O)N2Cc3ccccc3Cc3ccccc32)cc1)c1ccc(Cl)c(Cl)c1 [Example 250] ?
Ans. 77

Qu. May I ask what inhibition at 10 µM has been recorded for CC(C)COc1ccc([N+](=O)[O-])cc1C(=O)Nc1ccc(C(=O)N2Cc3ccccc3Cc3ccccc32)cc1 [Example 453] ?
Ans. 26

Qu. May I ask what inhibition at 10 µM has been recorded for O=C(Nc1ccc(C(=O)N2Cc3ccccc3Cc3ccccc32)cc1)c1cc(Cl)cc(Cl)c1Cl [Example 249] ?
Ans. 88

Qu. May I ask what inhibition at 10 µM has been recorded for Cc1ccccc1C(=O)Nc1ccc(C(=O)N2CCc3cnoc3-c3ccccc32)cc1 [Example 345] ?
Ans. 81

Further cases:
Qu. May I ask what inhibition at 10 µM has been recorded for CN(C)CC(=O)Nc1ccc(C(=O)N2Cc3ccccc3Cc3ccccc32)cc1 [Example 454] ?
Ans. 33
